Entry source: ChEMBL document CHEMBL1131776

metric-name: IC50 (µM)
// return numeric value only (unit: µM, not printed)

# value of IC50, Beta-1 adrenergic receptor (Homo sapiens), item CCCCCCc1cccc(N2CCc3cc(S(=O)(=O)Nc4ccccc4)ccc32)c1 = 0.7

# value of IC50, Beta-1 adrenergic receptor (Homo sapiens), item CCCCCCCCc1csc(N(C)c2ccc(S(=O)(=O)Nc3ccccc3)cc2)n1 = 1.5

# value of IC50, Beta-1 adrenergic receptor (Homo sapiens), item CCCCCCc1ccnc(N2CCc3cc(S(=O)(=O)Nc4ccccc4)ccc32)n1 = 1.4

# value of IC50, Beta-1 adrenergic receptor (Homo sapiens), item CCCCCCNC(=O)N(C)c1ccc(S(=O)(=O)Nc2ccc(CCNC[C@H](O)c3cccnc3)cc2)cc1 = 10
